Data origin: PubChem BioAssay AID2060885

- Test system: NCI-H23 complex spheroids with HUVEC/MSC, viability
- ASSAY PROCEDURE: Anticancer human tumor NCI-H23 cell line growth inhibition [RAS];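 also: spheroids exposed to compound for 7 days; 100% = DMSO vehicle control viability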
- CONDITION LABEL: second compound 0.003 µM; first compound 0.0316 µM; active compounds read low
Reported viability, T/C values for a set of compounds
The reply should contain only the number, in %.

COMPOUND	MEASUREMENT LABEL	UNITS	EXPERIMENTAL VALUE
CC(C)n1nc(-c2ccc3oc(N)nc3c2)c2c(N)ncnc21 + CCn1c(-c2cccnc2C(C)OC)c2c3cc(ccc31)N1CCOC(CC(NC(=O)C(C(C)C)N(C)C(=O)C3(F)CCN(C(=O)C#CC(C)(C)N(C)C)CC3)C(=O)N3CCCC(N3)C(=O)OCC(C)(C)C2)C1	viability, T/C	%	12.2
Cc1nc(N2CCC3(CC2)COC(C)C3N)c(CO)nc1Sc1ccnc(N)c1Cl (centres undefined) + CCn1c(-c2cc(N3CCN(C)CC3)cnc2C(C)OC)c2c3cc(ccc31)-c1csc(n1)CC(NC(=O)C1CC1C)C(=O)N1CCCC(N1)C(=O)OCC(C)(C)C2	viability, T/C	%	35
CCN1CCN(Cc2ccc(Nc3ncc(F)c(-c4cc(F)c5nc(C)n(C(C)C)c5c4)n3)nc2)CC1 + CCn1c(-c2cccnc2C(C)OC)c2c3cc(ccc31)N1CCOC(CC(NC(=O)C(C(C)C)N(C)C(=O)C3(F)CCN(C(=O)C#CC(C)(C)N(C)C)CC3)C(=O)N3CCCC(N3)C(=O)OCC(C)(C)C2)C1	viability, T/C	%	16.3

Attention now shifts to the item below.
[Q] Please report the measured viability, T/C for CC(=O)OC12COC1CC(O)C1(C)C(=O)C(O)C3=C(C)C(OC(=O)C(O)C(NC(=O)OC(C)(C)C)c4ccccc4)CC(O)(C(OC(=O)c4ccccc4)C21)C3(C)C (centres undefined) + CCn1c(-c2cc(N3CCN(C)CC3)cnc2C(C)OC)c2c3cc(ccc31)-c1csc(n1)CC(NC(=O)C1CC1C)C(=O)N1CCCC(N1)C(=O)OCC(C)(C)C2 tested on NCI-H23 complex spheroids with HUVEC/MSC, viability.
[A] 11.9

====

- Tested on: NCI-H23 complex spheroids with HUVEC/MSC, viability
- ASSAY PROCEDURE: Anticancer human tumor NCI-H23 cell line growth inhibition [RAS];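 also: spheroids exposed to compound for 7 days; 100% = DMSO vehicle control viability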
- CONDITION LABEL: second compound 0.000949 µM; first compound 1 µM; active compounds read low
viability, T/C under 10% gets Yes, anything at or over 10% gets No.

Solved cases below.
COMPOUND	ASSAYED SYSTEM	DISCRETE LABEL
Cc1nc(N2CCC3(CC2)COC(C)C3N)c(CO)nc1Sc1ccnc(N)c1Cl (stereo not given) + CCn1c(-c2cccnc2C(C)OC)c2c3cc(ccc31)N1CCOC(CC(NC(=O)C(C(C)C)N(C)C(=O)C3(F)CCN(C(=O)C#CC(C)(C)N(C)C)CC3)C(=O)N3CCCC(N3)C(=O)OCC(C)(C)C2)C1	NCI-H23 complex spheroids with HUVEC/MSC, viability	No
C=CC(=O)Nc1cc(Nc2nccc(-c3cn(C)c4ccccc34)n2)c(OC)cc1N(C)CCN(C)C + CCn1c(-c2cc(N3CCN(C)CC3)cnc2C(C)OC)c2c3cc(ccc31)-c1csc(n1)CC(NC(=O)C1CC1C)C(=O)N1CCCC(N1)C(=O)OCC(C)(C)C2	NCI-H23 complex spheroids with HUVEC/MSC, viability	No
CC(Nc1ccc2c(c1)OCCn1cc(N3C(=O)OCC3C(F)F)nc1-2)C(N)=O (stereo not given) + CCn1c(-c2cc(N3CCN(C)CC3)cnc2C(C)OC)c2c3cc(ccc31)-c1csc(n1)CC(NC(=O)C1CC1C)C(=O)N1CCCC(N1)C(=O)OCC(C)(C)C2	NCI-H23 complex spheroids with HUVEC/MSC, viability	No
Nc1ccn(C2OC(CO)C(O)C2(F)F)c(=O)n1 (stereo not given) + CCn1c(-c2cc(N3CCN(C)CC3)cnc2C(C)OC)c2c3cc(ccc31)-c1csc(n1)CC(NC(=O)C1CC1C)C(=O)N1CCCC(N1)C(=O)OCC(C)(C)C2	NCI-H23 complex spheroids with HUVEC/MSC, viability	Yes

[Q] is_below(viability, T/C, 10%) for CCN1CCN(Cc2ccc(Nc3ncc(F)c(-c4cc(F)c5nc(C)n(C(C)C)c5c4)n3)nc2)CC1 + CCn1c(-c2cc(N3CCN(C)CC3)cnc2C(C)OC)c2c3cc(ccc31)-c1csc(n1)CC(NC(=O)C1CC1C)C(=O)N1CCCC(N1)C(=O)OCC(C)(C)C2 ?
[A] No

====

- Test system: NCI-H23 complex spheroids with HUVEC/MSC, viability
- ASSAY PROCEDURE: Anticancer human tumor NCI-H23 cell line growth inhibition [RAS]; active = viability on the fitted dose curve at most 10% of control; inactive = the rest;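 also: spheroids exposed to compound for 7 days; 100% = DMSO vehicle control viability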
- CONDITION LABEL: second compound 0.003 µM; first compound 0.03 µM
Please answer using one outcome listed in true for active, false for inactive

Look over these answered cases.
COMPOUND	DISCRETE LABEL
CC1(C)CCC(Nc2ncc(C(F)(F)F)c(-c3c[nH]c4c(P(C)(C)=O)c(C#N)ccc34)n2)CN1 (centres undefined) + CCn1c(-c2cccnc2C(C)OC)c2c3cc(ccc31)N1CCOC(CC(NC(=O)C(C(C)C)N(C)C(=O)C3(F)CCN(C(=O)C#CC(C)(C)N(C)C)CC3)C(=O)N3CCCC(N3)C(=O)OCC(C)(C)C2)C1	false
CCc1c2c(nc3ccc(O)cc13)-c1cc3c(c(=O)n1C2)COC(=O)[C@]3(O)CC + CCn1c(-c2cc(N3CCN(C)CC3)cnc2C(C)OC)c2c3cc(ccc31)-c1csc(n1)CC(NC(=O)C1CC1C)C(=O)N1CCCC(N1)C(=O)OCC(C)(C)C2	true
CC1(C)CCC(Nc2ncc(C(F)(F)F)c(-c3c[nH]c4c(P(C)(C)=O)c(C#N)ccc34)n2)CN1 (centres undefined) + CCn1c(-c2cc(N3CCN(C)CC3)cnc2C(C)OC)c2c3cc(ccc31)-c1csc(n1)CC(NC(=O)C1CC1C)C(=O)N1CCCC(N1)C(=O)OCC(C)(C)C2	false

Let us examine a further case.
[Q] Dear colleague, could you share the recorded outcome for CCc1c2c(nc3ccc(O)cc13)-c1cc3c(c(=O)n1C2)COC(=O)[C@]3(O)CC + CCn1c(-c2cccnc2C(C)OC)c2c3cc(ccc31)N1CCOC(CC(NC(=O)C(C(C)C)N(C)C(=O)C3(F)CCN(C(=O)C#CC(C)(C)N(C)C)CC3)C(=O)N3CCCC(N3)C(=O)OCC(C)(C)C2)C1 when you have a moment?
[A] true

====

viability, T/C values, listed per item
- Test system: NCI-H23 complex spheroids with HUVEC/MSC, viability
- ASSAY PROCEDURE: Anticancer human tumor NCI-H23 cell line growth inhibition [RAS];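 also: spheroids exposed to compound for 7 days; 100% = DMSO vehicle control viability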
- CONDITION LABEL: second compound 0.316 µM; first compound 0.1 µM; active compounds read low
Please give a number only; it is taken to be in %.

Below are worked cases with known answers.
MOLECULE	MEASUREMENT LABEL	UNITS	EXPERIMENTAL VALUE
C=CC(=O)N1CCN(c2nc(OCC3CCCN3C)nc3c(F)c(-c4nc(N)cc(C)c4C(F)(F)F)c(Cl)cc23)C(C)C1 (stereo not drawn) + C#Cc1c(F)ccc2cc(O)cc(-c3ncc4c(N5CC6CCC(C5)N6)nc(OCC56CCCN5CC(F)C6)nc4c3F)c12	viability, T/C	%	37.9
CC1(O)CCCC1n1c(=O)c(C(F)F)cc2cnc(NC3CCN(S(C)(=O)=O)CC3)nc21 (stereo not drawn) + C#Cc1c(F)ccc2cc(O)cc(-c3ncc4c(N5CC6CCC(C5)N6)nc(OCC56CCCN5CC(F)C6)nc4c3F)c12	viability, T/C	%	74.1

Turning now to a further molecule:
[Q] Give the observed viability, T/C of NC1c2ccccc2OC12CCN(c1cnc3c(N4CCCc5ncccc54)n[nH]c3n1)CC2 (stereo not drawn) + C=CC(=O)N1CCN(c2nc(OCC3CCCN3C)nc3c(F)c(-c4nc(N)cc(C)c4C(F)(F)F)c(Cl)cc23)C(C)C1 for NCI-H23 complex spheroids with HUVEC/MSC, viability.
[A] 23.4

====

- Test system: NCI-H23 complex spheroids with HUVEC/MSC, viability
- ASSAY PROCEDURE: Anticancer human tumor NCI-H23 cell line growth inhibition [RAS];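 also: spheroids exposed to compound for 7 days; 100% = DMSO vehicle control viability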
- CONDITION LABEL: second compound 0.003 µM; first compound 0.0316 µM; active compounds read low
MEASUREMENT LABEL: viability, T/C (%)
Please state the figure in %; there is no need to write the unit.

Use the examples below as a reference point.
COMPOUND	UNITS	viability, T/C
CC(C)NCC(C(=O)N1CCN(c2ncnc3c2C(C)CC3O)CC1)c1ccc(Cl)cc1 (centres undefined) + CCn1c(-c2cccnc2C(C)OC)c2c3cc(ccc31)N1CCOC(CC(NC(=O)C(C(C)C)N(C)C(=O)C3(F)CCN(C(=O)C#CC(C)(C)N(C)C)CC3)C(=O)N3CCCC(N3)C(=O)OCC(C)(C)C2)C1	%	33.8
CCC(CC)c1cc(NC2CCC(N)C2)n2nccc2n1 (centres undefined) + CCn1c(-c2cc(N3CCN(C)CC3)cnc2C(C)OC)c2c3cc(ccc31)-c1csc(n1)CC(NC(=O)C1CC1C)C(=O)N1CCCC(N1)C(=O)OCC(C)(C)C2	%	37.7
Cc1nc(N2CCC3(CC2)COC(C)C3N)c(CO)nc1Sc1ccnc(N)c1Cl (centres undefined) + CCn1c(-c2cccnc2C(C)OC)c2c3cc(ccc31)N1CCOC(CC(NC(=O)C(C(C)C)N(C)C(=O)C3(F)CCN(C(=O)C#CC(C)(C)N(C)C)CC3)C(=O)N3CCCC(N3)C(=O)OCC(C)(C)C2)C1	%	25.1

[Q] Look up and state reported viability, T/C for C=CC(=O)N1CCN(c2nc(OCC3CCCN3C)nc3c(F)c(-c4nc(N)cc(C)c4C(F)(F)F)c(Cl)cc23)C(C)C1 (centres undefined) + CCn1c(-c2cccnc2C(C)OC)c2c3cc(ccc31)N1CCOC(CC(NC(=O)C(C(C)C)N(C)C(=O)C3(F)CCN(C(=O)C#CC(C)(C)N(C)C)CC3)C(=O)N3CCCC(N3)C(=O)OCC(C)(C)C2)C1
[A] 25.6

[Q] Look up and state reported viability, T/C for CC(C)n1nc(-c2ccc3oc(N)nc3c2)c2c(N)ncnc21 + CCn1c(-c2cc(N3CCN(C)CC3)cnc2C(C)OC)c2c3cc(ccc31)-c1csc(n1)CC(NC(=O)C1CC1C)C(=O)N1CCCC(N1)C(=O)OCC(C)(C)C2
[A] 19

[Q] Using known records, supply viability, T/C for NC1c2ccccc2OC12CCN(c1cnc3c(N4CCCc5ncccc54)n[nH]c3n1)CC2 (centres undefined) + CCn1c(-c2cc(N3CCN(C)CC3)cnc2C(C)OC)c2c3cc(ccc31)-c1csc(n1)CC(NC(=O)C1CC1C)C(=O)N1CCCC(N1)C(=O)OCC(C)(C)C2
[A] 23.4

[Q] Identify the reported viability, T/C for the following entry. NC1c2ccccc2OC12CCN(c1cnc3c(N4CCCc5ncccc54)n[nH]c3n1)CC2 (centres undefined) + CCn1c(-c2cccnc2C(C)OC)c2c3cc(ccc31)N1CCOC(CC(NC(=O)C(C(C)C)N(C)C(=O)C3(F)CCN(C(=O)C#CC(C)(C)N(C)C)CC3)C(=O)N3CCCC(N3)C(=O)OCC(C)(C)C2)C1
[A] 20.7

[Q] Please give measured viability, T/C of the following entry: C[C@@H](NC(=O)c1ncnc(N)c1Cl)c1ncc(C(=O)Nc2cc(C(F)(F)F)c(Cl)cn2)s1 + CCn1c(-c2cccnc2C(C)OC)c2c3cc(ccc31)N1CCOC(CC(NC(=O)C(C(C)C)N(C)C(=O)C3(F)CCN(C(=O)C#CC(C)(C)N(C)C)CC3)C(=O)N3CCCC(N3)C(=O)OCC(C)(C)C2)C1
[A] 33

[Q] Supply reported viability, T/C belonging to this compound: CC(=O)OC12COC1CC(O)C1(C)C(=O)C(O)C3=C(C)C(OC(=O)C(O)C(NC(=O)OC(C)(C)C)c4ccccc4)CC(O)(C(OC(=O)c4ccccc4)C21)C3(C)C (centres undefined) + CCn1c(-c2cccnc2C(C)OC)c2c3cc(ccc31)N1CCOC(CC(NC(=O)C(C(C)C)N(C)C(=O)C3(F)CCN(C(=O)C#CC(C)(C)N(C)C)CC3)C(=O)N3CCCC(N3)C(=O)OCC(C)(C)C2)C1
[A] 11.3
